- tested target: T1, murine LAG3-Fc antigen (R&D Systems, 3328-L3-050) (murine, UniProt Q61790 24-442)
- T1 construct: Bought reagent
- T1 sequence (looked up): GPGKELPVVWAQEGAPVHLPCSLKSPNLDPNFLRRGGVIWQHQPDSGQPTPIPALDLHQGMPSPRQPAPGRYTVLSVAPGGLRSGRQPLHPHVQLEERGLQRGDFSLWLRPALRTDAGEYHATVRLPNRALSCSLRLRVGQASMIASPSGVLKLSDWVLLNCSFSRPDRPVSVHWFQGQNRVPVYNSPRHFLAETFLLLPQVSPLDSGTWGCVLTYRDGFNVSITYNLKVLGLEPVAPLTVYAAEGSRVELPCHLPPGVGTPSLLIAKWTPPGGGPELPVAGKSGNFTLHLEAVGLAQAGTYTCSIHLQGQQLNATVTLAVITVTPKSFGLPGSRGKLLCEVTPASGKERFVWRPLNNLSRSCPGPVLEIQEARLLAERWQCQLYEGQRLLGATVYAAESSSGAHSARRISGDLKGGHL
- assay procedure: ELISA using murine LAG3-Fc antigen
readout label: binding result

bivalent 19G3 aVH-Fc (Fc fusion) EVQLVESGGGLVQPGGSLRLSCAASGFNIKYQCIGWVRRAPGKGTELVAEICSYDGYTRYADSVKGRFTISADTSKNTAYLQMNSLRAEDTAVYYCAAEESVEGFIYWGQGTTVTVSSGGGGSGGGGSDKTHTCPPCPAPEAAGGPSVFLFPPKPKDTLMISRTPEVTCVVVDVSHEDPEVKFNWYVDGVEVHNAKTKPREEQYNSTYRVVSVLTVLHQDWLNGKEYKCKVSNKALGAPIEKTISKAKGQPREPQVYTLPPSRDELTKNQVSLTCLVKGFYPSDIAVEWESNGQPENNYKTTPPVLDSDGSFFLYSKLTVDKSRWQQGNVFSCSVMHEALHNHYTQKSLSLSPGK	no binding
bivalent P11A2 aVH-Fc (Fc fusion) EVQLVESGGGLVQPGGSLRLSCAASSFNIKDTYIGWVRRAPGKGTELVAEIACHEGTTRYADSVKGRFTISCDTSKNTAYLQMNSLRAEDTAVYYCANTEYDDIFDYWGQGTTVTVSSGGGGSGGGGSDKTHTCPPCPAPEAAGGPSVFLFPPKPKDTLMISRTPEVTCVVVDVSHEDPEVKFNWYVDGVEVHNAKTKPREEQYNSTYRVVSVLTVLHQDWLNGKEYKCKVSNKALGAPIEKTISKAKGQPREPQVYTLPPSRDELTKNQVSLTCLVKGFYPSDIAVEWESNGQPENNYKTTPPVLDSDGSFFLYSKLTVDKSRWQQGNVFSCSVMHEALHNHYTQKSLSLSPGK	no binding

Where these numbers come from: patent US20200354457A1
